Target: human CTLA-4 (Y166G and Y183G) expressed on CHO-K1.hCTLA-4 cells (human, UniProt P16410 36-223)
Sequence (P16410 36-223 Y201G/Y218G limits assumed): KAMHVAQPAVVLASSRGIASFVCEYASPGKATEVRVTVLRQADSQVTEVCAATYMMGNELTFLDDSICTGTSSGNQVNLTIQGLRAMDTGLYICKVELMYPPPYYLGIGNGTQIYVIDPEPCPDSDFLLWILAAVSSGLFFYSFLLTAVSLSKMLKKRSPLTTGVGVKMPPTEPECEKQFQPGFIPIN
Experiment: CELISA on CHO-K1.hCTLA-4 cells
measured.attribute: pEC50
Please report pEC50 as the negative decimal logarithm of the molar concentration, giving only the number.

binder	pEC50
hCTLA4.27A (antibody, V domains shown, also called mouse hCTLA4.27A; parental antibody) VH: QVQLQQPGAVLVRPGVSVKLSCKASGYSFTTYWMNWVKQRPGQGLEWIGMIHPSDSETSLNQAFKDKATLTIDKSSSTAYMQLSSPTSEDSAVYFCARMGRRNPYYFDYWGQGTTLTVSS VL: DIQMTQSPVSLSVSVGETVTITCRPSENLYTNLAWYQQKQGKSPQLLVYGATNLADGVPSRFSGSGSGTQYSLRINSLQSEDFGTYYCQHLWGTPFTFGSGTKLELK	10.32

Now look at this one.
Report pEC50 for hCTLA4.27H1L3 (antibody, human IgG4 S228P, kappa, V domains shown, Humanized, human IgG4 (S228P) kappa; H1 read as hCTLA4.27VH1, L3 as hCTLA4.27VL3) VH: EVQLLQSGAVLARPGTSVKISCKASGYSFTTYWMNWVKQRPGQGLEWIGMIHPSDSETSLNQAFKDKAKLTAATSASIAYLEFSSLTNEDSAVYYCARMGRRNPYYFDYWGQGTLVTVSS VL: DIQMTQSPSSLSASVGDTVTITCRPSENLYTNLAWYQQKPGKAPKLLLYGATNLADGVPSRFSGSGSGTDYTLTISSLQSEDFATYYCQHLWGTPFTFGQGTKLEIKR please.
10.35
